Attribute: Activity
Target: D(2) dopamine receptor (Homo sapiens, UniProt P14416)
Sequence (P14416 whole entry): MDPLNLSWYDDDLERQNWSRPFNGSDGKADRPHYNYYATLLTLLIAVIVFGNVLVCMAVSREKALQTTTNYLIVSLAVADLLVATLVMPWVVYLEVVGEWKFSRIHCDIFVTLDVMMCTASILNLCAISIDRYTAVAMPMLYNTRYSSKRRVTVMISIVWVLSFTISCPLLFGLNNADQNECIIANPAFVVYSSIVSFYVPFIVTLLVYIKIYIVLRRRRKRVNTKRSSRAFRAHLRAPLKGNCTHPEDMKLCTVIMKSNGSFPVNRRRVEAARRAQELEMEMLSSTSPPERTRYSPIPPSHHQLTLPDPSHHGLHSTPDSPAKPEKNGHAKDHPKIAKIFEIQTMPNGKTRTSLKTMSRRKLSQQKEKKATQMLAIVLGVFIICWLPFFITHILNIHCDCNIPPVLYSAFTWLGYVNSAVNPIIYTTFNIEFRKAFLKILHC
Assay: Inhibition of dopamine D2 receptor at 10 uM
Parameters: scale not given: the % may be the effect or the level left
Readout type: Activity (%)

1) Cc1ccccc1CN1CCC(N2CCC(n3c(=O)[nH]c4cc(F)ccc43)CC2)CC1; 40
2) Cc1ccccc1CN1CCC(N2CCC(n3c(=O)[nH]c4cc(Cl)ccc43)CC2)CC1; 35
3) O=c1[nH]c2cc(Cl)ccc2n1C1CCN(C2CCN(Cc3ccccc3)CC2)CC1; 35
4) N#Cc1ccccc1CN1CCC(N2CCC(n3c(=O)[nH]c4ccccc43)CC2)CC1; 40
5) O=c1[nH]c2ccccc2n1C1CCN(C2CCN(Cc3ccccc3C(F)(F)F)CC2)CC1; 30

====

Biological target: UniProt P08173
Sequence (P08173 whole entry): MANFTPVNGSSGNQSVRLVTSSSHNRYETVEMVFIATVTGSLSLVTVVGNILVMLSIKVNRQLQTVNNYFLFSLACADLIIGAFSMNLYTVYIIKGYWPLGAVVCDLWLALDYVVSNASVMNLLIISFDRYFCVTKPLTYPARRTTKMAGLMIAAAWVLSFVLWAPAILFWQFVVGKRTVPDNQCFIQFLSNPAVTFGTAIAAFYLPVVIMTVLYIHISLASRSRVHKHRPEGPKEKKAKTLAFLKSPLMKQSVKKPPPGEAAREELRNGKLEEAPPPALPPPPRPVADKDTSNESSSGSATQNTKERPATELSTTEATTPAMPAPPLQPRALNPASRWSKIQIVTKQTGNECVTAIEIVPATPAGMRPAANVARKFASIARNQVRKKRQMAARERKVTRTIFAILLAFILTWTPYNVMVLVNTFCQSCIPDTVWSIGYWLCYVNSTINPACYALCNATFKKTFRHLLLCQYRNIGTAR
Experiment: Agonist activity at muscarinic M4 receptor
pEC50: −log10 of the molar value.
Attribute: pEC50
Readout type: pEC50

1) Cc1ccccc1CN1CCC(N2CCC(n3c(=O)[nH]c4ccc(F)cc43)CC2)CC1; < 4.30
2) O=c1[nH]c2c(F)cccc2n1C1CCN(C2CCN(Cc3ccccc3C(F)(F)F)CC2)CC1; < 4.30
3) N#Cc1ccccc1CN1CCC(N2CCC(n3c(=O)[nH]c4cc(Cl)ccc43)CC2)CC1; < 4.30
4) CCOC(=O)N1CCC(N2CCC(n3c(=O)[nH]c4ccccc43)CC2)CC1; 8.04
5) O=c1[nH]c2ccccc2n1C1CCN(C2CCN(Cc3ccccc3C(F)(F)F)CC2)CC1; < 4.30

====

Target: Muscarinic acetylcholine receptor M1 (Homo sapiens)
Assay: Agonist activity at muscarinic M1 receptor
pEC50: −log10 of the molar value.
Quick rule for you: pEC50 at 6 or higher means met, lower means not met.

1) O=c1[nH]c2cc(Cl)ccc2n1C1CCN(C2CCN(Cc3ccccc3Cl)CC2)CC1; not met
2) O=c1[nH]c2ccccc2n1C1CCN(C2CCN(Cc3ccccc3Cl)CC2)CC1; met
3) O=c1[nH]c2ccccc2n1C1CCN(C2CCN(Cc3ccccc3C(F)(F)F)CC2)CC1; met
4) O=c1[nH]c2ccccc2n1C1CCN(C2CCN(Cc3ccccc3[N+](=O)[O-])CC2)CC1; met
5) N#Cc1ccccc1CN1CCC(N2CCC(n3c(=O)[nH]c4cc(Cl)ccc43)CC2)CC1; not met
6) O=c1[nH]c2cc(Cl)ccc2n1C1CCN(C2CCN(Cc3ccccc3)CC2)CC1; met
7) N#Cc1ccccc1CN1CCC(N2CCC(n3c(=O)[nH]c4ccccc43)CC2)CC1; met

====

Biological target: Muscarinic acetylcholine receptor M1 (Homo sapiens) (UniProt P11229)
Sequence (P11229 whole entry): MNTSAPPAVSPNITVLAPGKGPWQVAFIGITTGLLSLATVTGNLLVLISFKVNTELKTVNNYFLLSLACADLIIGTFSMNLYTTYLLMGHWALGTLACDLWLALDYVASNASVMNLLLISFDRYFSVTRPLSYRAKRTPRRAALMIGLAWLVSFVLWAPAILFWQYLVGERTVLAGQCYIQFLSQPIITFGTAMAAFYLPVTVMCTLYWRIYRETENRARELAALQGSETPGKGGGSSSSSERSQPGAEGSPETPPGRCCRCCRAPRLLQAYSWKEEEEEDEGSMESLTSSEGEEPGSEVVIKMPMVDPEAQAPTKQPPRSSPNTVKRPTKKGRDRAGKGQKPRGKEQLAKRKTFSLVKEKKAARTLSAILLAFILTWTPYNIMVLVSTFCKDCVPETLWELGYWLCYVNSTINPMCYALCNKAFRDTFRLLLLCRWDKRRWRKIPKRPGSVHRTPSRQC
Experiment: Agonist activity at muscarinic M1 receptor relative to carbachol
Format: functional
Criterion: Activity strictly under 80%. Met: Criterion met. Not met: Criterion not met.

1) O=c1[nH]c2c(F)cccc2n1C1CCN(C2CCN(Cc3ccccc3C(F)(F)F)CC2)CC1; Criterion met
2) Cc1ccccc1CN1CCC(N2CCC(n3c(=O)[nH]c4cc(Cl)ccc43)CC2)CC1; Criterion not met
3) N#Cc1ccccc1CN1CCC(N2CCC(n3c(=O)[nH]c4cc(Cl)ccc43)CC2)CC1; Criterion met
4) Cc1ccccc1CN1CCC(N2CCC(n3c(=O)[nH]c4ccc(F)cc43)CC2)CC1; Criterion not met
5) Cc1ccccc1CN1CCC(N2CCC(n3c(=O)[nH]c4c(F)cccc43)CC2)CC1; Criterion met
6) Cc1ccccc1CN1CCC(N2CCC(n3c(=O)[nH]c4cc(F)ccc43)CC2)CC1; Criterion not met
7) N#Cc1ccccc1CN1CCC(N2CCC(n3c(=O)[nH]c4ccccc43)CC2)CC1; Criterion met

====

Target: UniProt:P14416
Experiment: Inhibition of dopamine D2 receptor
pIC50: −log10 of the molar value.
Readout type: pIC50

1. O=c1[nH]c2cc(F)ccc2n1C1CCN(C2CCN(Cc3ccccc3C(F)(F)F)CC2)CC1; 5.57
2. O=c1[nH]c2ccccc2n1C1CCN(C2CCN(Cc3ccccc3Cl)CC2)CC1; 5.69
3. O=c1[nH]c2ccccc2n1C1CCN(C2CCN(Cc3ccccc3[N+](=O)[O-])CC2)CC1; 5.95
4. Cc1ccccc1CN1CCC(N2CCC(n3c(=O)[nH]c4ccccc43)CC2)CC1; 5.58

====

Biological target: Muscarinic acetylcholine receptor M1 (Homo sapiens)
Test: Agonist activity at muscarinic M1 receptor relative to carbachol
Assay type: functional
Attribute: Activity
Readout type: Activity (%)

1) O=c1[nH]c2cc(Cl)ccc2n1C1CCN(C2CCN(Cc3ccccc3[N+](=O)[O-])CC2)CC1; 42
2) O=c1[nH]c2cc(Cl)ccc2n1C1CCN(C2CCN(Cc3ccccc3C(F)(F)F)CC2)CC1; 83
3) O=c1[nH]c2cc(Cl)ccc2n1C1CCN(C2CCN(Cc3ccccc3)CC2)CC1; 74
4) O=c1[nH]c2ccccc2n1C1CCN(C2CCN(Cc3ccccc3[N+](=O)[O-])CC2)CC1; 48
5) O=c1[nH]c2ccccc2n1C1CCN(C2CCN(Cc3ccccc3Cl)CC2)CC1; 44
6) O=c1[nH]c2cc(Cl)ccc2n1C1CCN(C2CCN(Cc3ccccc3Cl)CC2)CC1; 49

====

Attribute: EC50
Biological target: Muscarinic acetylcholine receptor M5 (Homo sapiens, UniProt P08912)
Sequence (P08912 whole entry): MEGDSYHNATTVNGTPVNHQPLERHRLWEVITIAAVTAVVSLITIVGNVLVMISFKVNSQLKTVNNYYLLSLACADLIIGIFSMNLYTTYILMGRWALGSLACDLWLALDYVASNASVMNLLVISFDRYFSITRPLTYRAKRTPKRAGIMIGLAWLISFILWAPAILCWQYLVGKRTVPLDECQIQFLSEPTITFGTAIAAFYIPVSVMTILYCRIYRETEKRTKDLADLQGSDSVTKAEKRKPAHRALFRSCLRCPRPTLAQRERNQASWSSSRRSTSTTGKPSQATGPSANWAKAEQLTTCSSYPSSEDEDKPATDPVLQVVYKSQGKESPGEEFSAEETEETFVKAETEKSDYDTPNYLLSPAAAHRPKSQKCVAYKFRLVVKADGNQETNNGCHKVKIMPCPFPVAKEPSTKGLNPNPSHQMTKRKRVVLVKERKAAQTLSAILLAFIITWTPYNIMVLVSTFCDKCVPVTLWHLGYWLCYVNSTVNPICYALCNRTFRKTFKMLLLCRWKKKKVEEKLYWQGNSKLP
Assay: Agonist activity at muscarinic M5 receptor
Readout type: EC50

1) O=c1[nH]c2ccccc2n1C1CCN(C2CCN(Cc3ccccc3Cl)CC2)CC1; > 50 µM
2) O=c1[nH]c2cc(F)ccc2n1C1CCN(C2CCN(Cc3ccccc3C(F)(F)F)CC2)CC1; > 50 µM
3) Cc1ccccc1CN1CCC(N2CCC(n3c(=O)[nH]c4cc(Cl)ccc43)CC2)CC1; > 50 µM
4) O=c1[nH]c2cc(Cl)ccc2n1C1CCN(C2CCN(Cc3ccccc3Cl)CC2)CC1; > 50 µM
5) N#Cc1ccccc1CN1CCC(N2CCC(n3c(=O)[nH]c4cc(Cl)ccc43)CC2)CC1; > 50 µM
6) N#Cc1ccccc1CN1CCC(N2CCC(n3c(=O)[nH]c4ccccc43)CC2)CC1; > 50 µM
7) Cc1ccccc1CN1CCC(N2CCC(n3c(=O)[nH]c4ccc(F)cc43)CC2)CC1; > 50 µM
8) O=c1[nH]c2cc(Cl)ccc2n1C1CCN(C2CCN(Cc3ccccc3)CC2)CC1; > 50 µM
9) O=c1[nH]c2cc(Cl)ccc2n1C1CCN(C2CCN(Cc3ccccc3[N+](=O)[O-])CC2)CC1; > 50 µM

====

Attribute: EC50
Biological target: Muscarinic acetylcholine receptor M2 (Homo sapiens)
Sequence (P08172 whole entry): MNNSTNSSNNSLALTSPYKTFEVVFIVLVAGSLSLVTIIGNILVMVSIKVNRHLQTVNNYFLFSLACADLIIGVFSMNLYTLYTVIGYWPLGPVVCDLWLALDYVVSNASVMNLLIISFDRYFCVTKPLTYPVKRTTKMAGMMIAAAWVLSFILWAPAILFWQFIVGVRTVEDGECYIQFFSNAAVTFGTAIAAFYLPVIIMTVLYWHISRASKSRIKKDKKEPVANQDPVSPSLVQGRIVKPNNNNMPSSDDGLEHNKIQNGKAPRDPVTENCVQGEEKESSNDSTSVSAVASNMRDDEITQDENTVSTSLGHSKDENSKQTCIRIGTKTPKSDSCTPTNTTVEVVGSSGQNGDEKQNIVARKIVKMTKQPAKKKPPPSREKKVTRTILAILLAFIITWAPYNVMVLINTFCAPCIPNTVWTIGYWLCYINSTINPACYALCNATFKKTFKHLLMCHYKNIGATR
Experiment: Agonist activity at muscarinic M2 receptor
Readout type: EC50

1) O=c1[nH]c2ccccc2n1C1CCN(C2CCN(Cc3ccccc3C(F)(F)F)CC2)CC1; > 50 µM
2) CCOC(=O)N1CCC(N2CCC(n3c(=O)[nH]c4ccccc43)CC2)CC1; 0.0119 µM
3) O=c1[nH]c2ccccc2n1C1CCN(C2CCN(Cc3ccccc3Cl)CC2)CC1; > 50 µM
4) O=c1[nH]c2cc(Cl)ccc2n1C1CCN(C2CCN(Cc3ccccc3[N+](=O)[O-])CC2)CC1; > 50 µM
5) O=c1[nH]c2cc(F)ccc2n1C1CCN(C2CCN(Cc3ccccc3C(F)(F)F)CC2)CC1; > 50 µM
6) Cc1ccccc1CN1CCC(N2CCC(n3c(=O)[nH]c4c(F)cccc43)CC2)CC1; > 50 µM
7) O=c1[nH]c2c(F)cccc2n1C1CCN(C2CCN(Cc3ccccc3C(F)(F)F)CC2)CC1; > 50 µM
8) O=c1[nH]c2cc(Cl)ccc2n1C1CCN(C2CCN(Cc3ccccc3Cl)CC2)CC1; > 50 µM
9) N#Cc1ccccc1CN1CCC(N2CCC(n3c(=O)[nH]c4cc(Cl)ccc43)CC2)CC1; > 50 µM
10) Cc1ccccc1CN1CCC(N2CCC(n3c(=O)[nH]c4ccccc43)CC2)CC1; > 50 µM
11) O=c1[nH]c2ccccc2n1C1CCN(C2CCN(Cc3ccccc3[N+](=O)[O-])CC2)CC1; > 50 µM
12) O=c1[nH]c2ccc(F)cc2n1C1CCN(C2CCN(Cc3ccccc3C(F)(F)F)CC2)CC1; > 50 µM
13) O=c1[nH]c2cc(Cl)ccc2n1C1CCN(C2CCN(Cc3ccccc3)CC2)CC1; > 50 µM
14) Cc1ccccc1CN1CCC(N2CCC(n3c(=O)[nH]c4cc(F)ccc43)CC2)CC1; > 50 µM
15) N#Cc1ccccc1CN1CCC(N2CCC(n3c(=O)[nH]c4ccccc43)CC2)CC1; > 50 µM
16) Cc1ccccc1CN1CCC(N2CCC(n3c(=O)[nH]c4ccc(F)cc43)CC2)CC1; > 50 µM
17) Cc1ccccc1CN1CCC(N2CCC(n3c(=O)[nH]c4cc(Cl)ccc43)CC2)CC1; > 50 µM
18) O=c1[nH]c2cc(Cl)ccc2n1C1CCN(C2CCN(Cc3ccccc3C(F)(F)F)CC2)CC1; > 50 µM
